Target: Peptide deformylase (Escherichia coli) (UniProt Q9JN24)
Sequence (whole entry): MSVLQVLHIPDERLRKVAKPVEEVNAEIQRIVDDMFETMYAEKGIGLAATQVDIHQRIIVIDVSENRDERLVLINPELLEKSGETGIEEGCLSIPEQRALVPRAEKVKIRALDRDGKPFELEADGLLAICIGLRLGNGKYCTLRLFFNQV
Assay: The inhibition constant was measured against Escherichia coli PDF (Peptide deformylase) by diluting a preformed EI* complex into a assay buffer containing f-Met-Lys-AMC and DPPI
Listing of recorded K6 by entry.

Here are 5 compounds together with their reported answers.
NCCCC[C@@H]1NC(=O)[C@@H](CN(O)C=O)CCCCCCCCCNC1=O: 0.0042 min⁻¹
CC(C)(C)[C@@H]1NC(=O)[C@@H](CN(O)C=O)CCCCCCCCCCNC1=O: 0.0037 min⁻¹
CC(C)(C)[C@@H]1NC(=O)[C@@H](CN(O)C=O)CCCCCCCCNC1=O: 0.0061 min⁻¹
CC(C)(C)[C@@H]1NC(=O)[C@@H](CN(O)C=O)CCCCCCCCCNC1=O: 0.0038 min⁻¹
NCCCC[C@@H]1NC(=O)[C@@H](CN(O)C=O)CCCCCCCCCCCCCCNC1=O: 0.018 min⁻¹

Query :: If you can, please state the reported K6 value of CC(C)(C)[C@@H]1NC(=O)[C@@H](CN(O)C=O)CCCCCCCCCCCCCCNC1=O .
Result :: 0.01 min⁻¹

Query :: If you can, please state the reported K6 value of CC(C)(C)[C@@H]1NC(=O)[C@@H](CN(O)C=O)CCCCCCCCCCCNC1=O .
Result :: 0.0015 min⁻¹

Query :: If you can, please state the reported K6 value of CC(=O)NCCCC[C@@H]1NC(=O)[C@@H](CN(O)C=O)CCCCCCCCCNC1=O .
Result :: 0.0048 min⁻¹

====

Listing of recorded inhibition by entry.
Biological target: Stromelysin-1 (Homo sapiens)
Assay: Inhibition of MMP-3 (matrix metalloprotease) at 10 uM
Answer format: number, then unit.

CC(C)(C)[C@@H]1NC(=O)[C@@H](CN(O)C=O)CCCCCCCCNC1=O: 20%
CCCCCCNC(=O)[C@H](CCCCN)NC(=O)[C@H](CCCCC)CN(O)C=O: 99%

Query :: If you can, please state the reported inhibition value of CC(C)(C)[C@@H]1NC(=O)[C@@H](CN(O)C=O)CCCCCCCCCCCCCCNC1=O .
Result :: 4%

Query :: If you can, please state the reported inhibition value of CC(=O)NCCCC[C@@H]1NC(=O)[C@@H](CN(O)C=O)CCCCCCCCCNC1=O .
Result :: 8%

Query :: If you can, please state the reported inhibition value of CC(C)(C)[C@@H]1NC(=O)[C@@H](CN(O)C=O)CCCCCCCCCNC1=O .
Result :: 9%

Query :: If you can, please state the reported inhibition value of NCCCC[C@@H]1NC(=O)[C@@H](CN(O)C=O)CCCCCCCCCCCCCCNC1=O .
Result :: 6%

Query :: If you can, please state the reported inhibition value of CCCC[C@H](CN(O)C=O)C(=O)N[C@@H](CCCCN)C(=O)Nc1ccccc1 .
Result :: 73%

====

Target: Matrix metalloproteinase-9 (Homo sapiens) (UniProt P14780)
Sequence (P14780 whole entry): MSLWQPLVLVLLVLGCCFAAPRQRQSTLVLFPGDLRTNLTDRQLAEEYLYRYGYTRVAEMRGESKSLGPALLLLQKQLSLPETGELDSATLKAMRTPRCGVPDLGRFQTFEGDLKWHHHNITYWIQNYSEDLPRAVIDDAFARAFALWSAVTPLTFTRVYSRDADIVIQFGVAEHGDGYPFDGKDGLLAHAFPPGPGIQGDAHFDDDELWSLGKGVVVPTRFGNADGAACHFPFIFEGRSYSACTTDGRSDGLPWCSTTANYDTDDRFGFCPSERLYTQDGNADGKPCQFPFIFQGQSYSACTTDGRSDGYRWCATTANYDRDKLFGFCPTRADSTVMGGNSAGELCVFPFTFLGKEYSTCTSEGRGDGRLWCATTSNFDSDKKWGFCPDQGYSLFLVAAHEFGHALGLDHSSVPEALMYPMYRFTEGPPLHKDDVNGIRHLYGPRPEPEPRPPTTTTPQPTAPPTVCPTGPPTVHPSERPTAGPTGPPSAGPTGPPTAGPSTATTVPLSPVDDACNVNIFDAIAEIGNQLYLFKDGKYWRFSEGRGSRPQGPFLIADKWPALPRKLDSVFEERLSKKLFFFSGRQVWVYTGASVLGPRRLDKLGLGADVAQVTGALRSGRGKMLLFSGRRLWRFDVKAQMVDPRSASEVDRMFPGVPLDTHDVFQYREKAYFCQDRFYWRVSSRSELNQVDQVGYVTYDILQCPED
Experiment: Inhibition of MMP-9 (matrix metalloprotease) at 10 uM
Decide by inhibition: equal to or exceeding 10% means label 1, less means label 0.

// known answers, use as guide
CCCCCCNC(=O)[C@H](CCCCN)NC(=O)[C@H](CCCCC)CN(O)C=O: label 1
CC(=O)NCCCC[C@@H]1NC(=O)[C@@H](CN(O)C=O)CCCCCCCCCNC1=O: label 0
CC(C)(C)[C@@H]1NC(=O)[C@@H](CN(O)C=O)CCCCCCCCCNC1=O: label 0
NCCCC[C@@H]1NC(=O)[C@@H](CN(O)C=O)CCCCCCCCCCCCCCNC1=O: label 0
CC(C)(C)[C@@H]1NC(=O)[C@@H](CN(O)C=O)CCCCCCCCCCCCCCNC1=O: label 0

Query :: Please indicate if the recorded inhibition for CC(C)(C)[C@@H]1NC(=O)[C@@H](CN(O)C=O)CCCCCCCCNC1=O meets or exceeds 10%.
Result :: label 1

Query :: Please indicate if the recorded inhibition for CCCC[C@H](CN(O)C=O)C(=O)N[C@@H](CCCCN)C(=O)Nc1ccccc1 meets or exceeds 10%.
Result :: label 1
